Origin of the recorded values: the supplement of paper PMC7125110

B1: glmS ribozyme (parent)
chain: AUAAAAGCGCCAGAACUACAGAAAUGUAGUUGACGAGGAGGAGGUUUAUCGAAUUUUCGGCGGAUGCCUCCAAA

Variants of: B1
Assay summary: self-cleavage kobs at 40 uM GlcN6P; higher = faster cleavage; RNA array
Condition summary: with glucosamine-6-phosphate
Fewer inactive variants are shown than the library holds.
Can you tell me self-cleavage kobs at 40 uM GlcN6P for the items I'm about to list?

C8A U55G A64C U69G; 0.000295 s⁻¹
A39G U55G C67A; 0.000369 s⁻¹
C11U G44C G60U; < 1e-05 s⁻¹
G35U A64C C68A; < 1e-05 s⁻¹
A6U C11U G13A; < 1e-05 s⁻¹
C11U G41C U45A C71G; < 1e-05 s⁻¹
C11A C68A; < 1e-05 s⁻¹
C10U C50G; 6.14e-05 s⁻¹

Look up self-cleavage kobs at 40 uM GlcN6P for the entries below, preserving their order.
1. A12G C16U C34A A39U G60A U69G
2. G13C G66C
3. A15G U54A G62C U65A

< 1e-05 s⁻¹
< 1e-05 s⁻¹
< 1e-05 s⁻¹
